Target or system Muscarinic acetylcholine receptor M2 (Rattus norvegicus); recorded quantity log10 K app.
Measured endpoint: log10 K app (log10 of the value in µM)

Compound	log10 K app
C[C@@H]1OCC2(CN3CCC2CC3)O1 (stereo in doubt; 1B2)	0.93
CC1OCC2(CN3CCC2CC3)O1 (single isomer, unassigned)	1.96
C[N+](C)(C)CCOC(N)=O.[Cl-] [CARBACHOL]	0.28
C[C@@H]1O[C@H](C[N+](C)(C)C)C[C@H]1O [MUSCARINE]	0.36
C[C@@H]1OCC2(CN3CCC2CC3)O1.C[C@H]1OCC2(CN3CCC2CC3)O1 (some centres not stated)	0.92
C[C@H]1OCC2(CN3CCC2CC3)O1 (stereo in doubt; 1B1)	0.34
C[C@@H]1OCC2(CN3CCC2CC3)O1 (stereo in doubt; 1A1)	1.81
